- System: IGROV1 ovarian
- Measurement Notes: NCI tumour cell line growth inhibition, 48 h

| Compound | TGI |
| --- | --- |
| Fc1cc(-c2nnc3n2N=C(c2ccc(Cl)cc2)CS3)c(Cl)cc1Cl | > 37.6 µM |
| Cc1ccc(-[n+]2cc([O-])on2)cc1 | > 100 µM |
| Nc1nc2[nH]cc(CCc3ccc(C(=O)N[C@@H](CCC(=O)O)C(=O)O)cc3)c2c(=O)[nH]1 | > 100 µM |
| COC(=O)[C@]12CC[C@@H](C)[C@H](C)[C@@H]1C1=CC[C@@H]3[C@@]4(C)C[C@@H](O)[C@H](O)[C@@](C)(CO)[C@@H]4[C@H](O)C[C@@]3(C)[C@]1(C)CC2 | 29.4 µM |
| Cc1ccc(C(=O)OC(C(=O)O)C(OC(=O)c2ccc(C)cc2)C(=O)O)cc1 (stereo not given) (tested in a mixture with another compound) | 26.5 µM |
| C=C(C)C(=O)O[C@@H]1C[C@@]2(C)O[C@@H]2C[C@H](O)/C(C)=C/[C@H]2OC(=O)C(=C)[C@@H]21 | > 100 µM |
| COCCn1cc(-c2nc(-c3cc4cccnc4[nH]3)cs2)c2cc(OC)ccc21 | > 34.5 µM |
| COc1cc2c(cc1O)[C@H](C)C(c1ccc(OC)c(OC)c1)O2 (stereo not given in full) | 4.36 µM |
| NC(=S)N/N=C\c1nccc2c(C(F)(F)F)cccc12 | 14.8 µM |
| Cc1ccc(S(=O)(=O)N2CC2CCCCC=O)cc1 (stereo not given) | > 100 µM |

* * *

- System: HCC-2998 colon
- Measurement Notes: NCI tumour cell line growth inhibition, 48 h
This listing pairs molecules with measured TGI.

| Molecule | TGI |
| --- | --- |
| COc1ccc(/C=C/COC(C)=O)cc1OC | > 100 µM |
| C[C@@H]1CC[C@H]2C(C)(C)[C@H]3C[C@@]12CC[C@@]3(C)O | > 100 µM |
| Fc1cc(-c2nnc3n2N=C(c2ccc(Cl)cc2)CS3)c(Cl)cc1Cl | 31.1 µM |
| CCOC(=O)C12OC(OCC)(CC1(OCC)OCC)C1(CC1)C2=O (configuration not stated) | > 100 µM |
| C=C(C)C12OC1[C@@]1(C)C(=CC2=O)CCC(O)[C@@H]1C (some centres not stated) | 17.6 µM |
| COc1ccc(S(=O)(=O)n2c3c(c4ccccc42)[C@@H]2[C@@H](CCCN2C(=O)CS(=O)c2ccc(C)cc2)[C@H](Cl)C3)cc1 (some centres not stated) | > 100 µM |
| CC1NC(=O)C(C)C(c2ccccc2)N(N=O)C1c1ccccc1 (configuration not stated) | > 100 µM |
| NC(=S)N/N=C1\c2cc(Cl)ccc2-c2c1cc(Cl)cc2[N+](=O)[O-] | > 100 µM |
| O=C(C(=O)n1ccc2ccccc21)n1ccc2ccccc21 | > 100 µM |
| Clc1ccc2cccc3c2c1C1OC3c2ccccc21 (configuration not stated) | > 100 µM |
| CN(C)CC1CCCC/C1=N/O (configuration not stated) | > 100 µM |
| COc1cc(OCCN(C)C)c2[nH]c(C(=O)N3CC(CCl)c4ccc(N)cc43)cc2c1 (configuration not stated) | 0.297 µM |
| CC(=O)[O-].CC(=O)[O-].O=C(N/N=C/c1cc(Cl)cc(Cl)c1O)c1ccncc1.[Cu+2] | > 100 µM |
| Cc1ccc(S(=O)(=O)N2CCC2c2ccccc2)cc1 (configuration not stated) | > 100 µM |
| NC(Cc1ccccc1)C(=O)NC(Cc1ccccc1)NC(=O)C(Cc1c[nH]c2ccccc12)C(=O)O (configuration not stated) | > 100 µM |
| CC1=NN(c2nc(N)nc(COc3ccc(N)cc3)n2)C(C)(C)C1 | > 100 µM |
| CN1C(=O)C(=O)N2c3ccc(Cl)cc3C3(c4ccccc4)N=CC12O3 (configuration not stated) | 28.4 µM |

* * *

- Tested on: ACHN renal
- Measurement Notes: NCI tumour cell line growth inhibition, 48 h
This listing pairs compounds with measured TGI.

| Compound | System | TGI |
| --- | --- | --- |
| Clc1ccc2cccc3c2c1C1OC3c2ccccc21 (stereo not given) | ACHN renal | > 100 µM |
| CC(=O)OCc1ccc2c(c1)C(O)NC(=O)O2 (stereo not given) | ACHN renal | > 100 µM |
| O=C(Nc1nn2c(-c3cc(C(F)(F)F)cc(C(F)(F)F)c3)nnc2s1)C1CCCC1 | ACHN renal | > 31.6 µM |
| COC(=O)[C@]12CC[C@@H](C)[C@H](C)[C@@H]1C1=CC[C@@H]3[C@@]4(C)C[C@@H](O)[C@H](O)[C@@](C)(CO)[C@@H]4[C@H](O)C[C@@]3(C)[C@]1(C)CC2 | ACHN renal | 21.6 µM |
| C=C(C)C12OC1[C@@]1(C)C(=CC2=O)CCC(O)[C@@H]1C (stereo not given in full) | ACHN renal | 2.42 µM |
| O=C(O)C(Cl)Cl | ACHN renal | > 10000 µM |
| Cc1nn(C(=O)Cc2ccccc2)c2c1C(c1ccccc1)SC(N)=N2 (stereo not given) | ACHN renal | > 100 µM |
| CCOC(=O)C1Sc2ccccc2N=C1C (stereo not given) | ACHN renal | > 100 µM |
| C=C1c2nc3ccccc3n2C=C(c2ccc(OC)cc2)N1c1ccc(OC)cc1 | ACHN renal | 25 µM |
| O=C1NC(=NCc2ccccc2)S/C1=C\c1ccc2ncccc2c1 | ACHN renal | > 25 µM |

* * *

- Test system: SK-MEL-5 melanoma
- Measurement Notes: NCI tumour cell line growth inhibition, 48 h

| Compound | TGI |
| --- | --- |
| C[C@]12c3c4cc(NC(=O)C(=O)NCc5ccc(-c6ccccn6)nc5)cc3Oc3cc(NC(=O)C(=O)NCc5ccc(-c6ccccn6)nc5)cc(c31)OC1C=C(NC(=O)C(=O)NCc3ccc(-c5ccccn5)nc3)C=C(O4)C12 (some centres undefined) | > 100 µM |
| Cc1ccc(-c2nc(N3CCNCC3)c3oc(-c4ccc(C)cc4)nc3n2)cc1 | > 53.9 µM |
| O=C(O)Cc1ccc([N+](=O)[O-])cc1[N+](=O)[O-] | > 100 µM |
| Nc1nc2[nH]cc(CCc3ccc(C(=O)N[C@@H](CCC(=O)O)C(=O)O)cc3)c2c(=O)[nH]1 | > 100 µM |

* * *

This listing pairs compounds with measured TGI.
- System: PC-3 prostate
- Measurement Notes: NCI tumour cell line growth inhibition, 48 h

| Compound | System | TGI |
| --- | --- | --- |
| O=S(=O)(O)c1cc(N=Nc2c(O)ccc3ccccc23)cc2c(S(=O)(=O)O)cccc12 | PC-3 prostate | > 100 µM |
| Cc1nn(C(=O)Cc2ccccc2)c2c1C(c1ccccc1)SC(N)=N2 (stereo not drawn) | PC-3 prostate | > 100 µM |
| Cc1ccc2nc(-c3ccccc3)cc(=O)n2c1 | PC-3 prostate | > 100 µM |

* * *

- Tested on: UACC-62 melanoma
- Measurement Notes: NCI tumour cell line growth inhibition, 48 h
Value Type: TGI (µM)

| Compound | Measurement Qualifier | Recorded Measurement |
| --- | --- | --- |
| CC1NC(=O)C(C)C(c2ccccc2)N(N=O)C1c1ccccc1 (stereo not given) | > | 100 |
| N=c1oc2ccccc2cc1C(=O)NC12CC3CC(CC(C3)C1)C2 | = | 62.6 |
| O=c1[nH]c2cc(Cl)ccc2nc1/C(=N\Nc1ccccc1)C(O)c1ccc(Cl)c(Cl)c1 (stereo not given) | > | 100 |
| COC(=O)c1ccc(Cc2cc(Cc3ccc(C(=O)OC)cc3)cc(Cc3ccc(C(=O)OC)cc3)c2)cc1 | > | 25 |
| CCNC(=O)C#Cc1ccc2c(C(=Nc3ccc(CN(C)C)cc3)c3ccccc3)c(O)[nH]c2c1 | = | 0.0775 |
| Cc1[nH]c(=O)nc2sc(=NC3CCCCC3)n(C3CCCCC3)c(=O)c12 | > | 100 |
| CCOC(=O)/C(=C/c1ccc(OC)cc1)N(CC)CC | > | 100 |
| COc1ccc(C2=CC(C(C)=C(C(N)=O)C(N)=O)C=C(c3ccc(Br)cc3)C2)c(OC)c1 (stereo not given) | > | 100 |
| O=C(Nc1cccc(C(F)(F)F)c1)Nc1cccc(C(F)(F)F)c1 | = | 2.66 |
| Cc1ccc(-c2nc(N3CCNCC3)c3oc(-c4ccc(C)cc4)nc3n2)cc1 | = | 28.6 |

* * *

- Test system: UACC-62 melanoma
- Measurement Notes: NCI tumour cell line growth inhibition, 48 h; in the data active means GI50 below about 0.43 µM; inactive means the rest
Outcome codes: y for active, n for inactive

| Compound | Discrete Label |
| --- | --- |
| NC(=S)N/N=C\c1nccc2c(C(F)(F)F)cccc12 | y |
| c1ccc(Nc2ncc(-c3ccccc3)o2)cc1 | n |
| CC(=O)N[C@@H](Cc1ccc(OP(=O)(O)O)cc1)C(=O)N[C@H]1CCC(=O)N2CCC[C@@H](C(=O)Nc3cccc4ccccc34)N2C1=O | n |
| COC(=O)[C@]12CC[C@@H](C)[C@H](C)[C@@H]1C1=CC[C@@H]3[C@@]4(C)C[C@@H](O)[C@H](O)[C@@](C)(CO)[C@@H]4[C@H](O)C[C@@]3(C)[C@]1(C)CC2 | n |
| COc1ccc(C(c2cc(OC)c(OC)c(OC)c2)n2cncn2)cc1O (stereo not given) | n |
